# System: Escherichia coli
# Type: cell-based
# protocol.conditions: strain 061
So I've got a bunch of compounds here, and I need their MIC E. coli 061 values.
Give bare numbers, in µg/mL.

CC(C)C[C@@H]1NC(=O)[C@@H](CC2CCCCC2)NC(=O)[C@H](CCN)NC(=O)[C@@H](NC(=O)[C@H](CCN)NC(=O)[C@@H](NC(=O)CC(CN)CC2CCCCC2)[C@@H](C)O)CCNC(=O)[C@H]([C@@H](C)O)NC(=O)[C@H](CCN)NC(=O)[C@H](CCN)NC1=O (single isomer, unassigned) : 8

Lookup: Enter recorded MIC E. coli 061 with Escherichia coli for CC(C)C[C@@H]1NC(=O)[C@@H](CC2CCCCC2)NC(=O)[C@H](CCN)NC(=O)[C@@H](NC(=O)[C@H](CCN)NC(=O)[C@@H](NC(=O)CC(CN)C2CCCCC2)[C@@H](C)O)CCNC(=O)[C@H]([C@@H](C)O)NC(=O)[C@H](CCN)NC(=O)[C@H](CCN)NC1=O (single isomer, unassigned; isomer 1) [Example 86] here.
Found: 32

====

# Tested on: Klebsiella pneumoniae
# Assay type: cell-based
Bridge positions count the residues as written; N and C are the ends. Square brackets hold non-standard residues; d marks the D form. Peptide text beside a SMILES is read from it. * marks the point of attachment. ξ: configuration not given here. Octanoyl(6-Me) = CCC(C)CCCCC(=O)*; dCha = N[C@H](CC1CCCCC1)C(=O)O; Thr(3ξ) = CC(O)[C@H](N)C(=O)O; Dab = NCC[C@H](N)C(=O)O
Please go through the items and note down their MIC K. pneumoniae ATCC 4352.
One number for each entry, in µg/mL.

CCC(C)CCCCC(=O)N[C@@H](CCN)C(=O)N[C@H](C(=O)N[C@@H](CCN)C(=O)N[C@H]1CCNC(=O)[C@H](C(C)O)NC(=O)[C@H](CCN)NC(=O)[C@H](CCN)NC(=O)[C@H](CC(C)C)NC(=O)[C@@H](CC2CCCCC2)NC(=O)[C@H](CCN)NC1=O)C(C)O (some centres unmarked) [Example 22] ({Octanoyl(6-Me)}-[Dab][Thr(3ξ)][Dab][Dab][Dab][dCha]L[Dab][Dab][Thr(3ξ)]; lactam 4-C) : 0.5

Now for the molecule whose MIC K. pneumoniae ATCC 4352 we want.
Lookup: Note down MIC K. pneumoniae ATCC 4352 recorded for CC(C)CC1CNCC(C(=O)N[C@H](C(=O)N[C@@H](CN)C(=O)N[C@H]2CCNC(=O)[C@H]([C@@H](C)O)NC(=O)[C@H](CCN)NC(=O)[C@H](CCN)NC(=O)[C@H](CC(C)C)NC(=O)[C@@H](Cc3ccc(-c4ccccc4)cc3)NC(=O)[C@H](CCN)NC2=O)C(C)O)C1 (single isomer, unassigned; isomer 2) [Example 4]
Found: 0.5

====

# System: Escherichia coli
# Type: cell-based
Bridge positions count the residues as written; N and C are the ends. Square brackets hold non-standard residues; d marks the D form. Peptide text beside a SMILES is read from it. * marks the point of attachment. ξ: configuration not given here. Octanoyl(6-Me) = CCC(C)CCCCC(=O)*; dCha = N[C@H](CC1CCCCC1)C(=O)O; Thr(3ξ) = CC(O)[C@H](N)C(=O)O; X28 = NCCC(C(=O)*)c1ccccc1Cl; X24 = NCCC(Cc1ccsc1)C(=O)*; Dab = NCC[C@H](N)C(=O)O; X6 = CCCCCCC(CCN)C(=O)*; Dap = NC[C@H](N)C(=O)O
endpoint.label: MIC E. coli 058
A complete answer gives the number followed by the unit.

CCCCCCC(CCN)C(=O)N[C@H](C(=O)N[C@@H](CCN)C(=O)N[C@H]1CCNC(=O)[C@H]([C@@H](C)O)NC(=O)[C@H](CCN)NC(=O)[C@H](CCN)NC(=O)[C@H](CC(C)C)NC(=O)[C@@H](Cc2ccccc2)NC(=O)[C@H](CCN)NC1=O)C(C)O (stereo partly drawn) [Example C5, reference compound] (X6-[Thr(3ξ)][Dab][Dab][Dab][dF]L[Dab][Dab]T; lactam 3-C) : 2 µg/mL
CCC(C)CCCCC(=O)N[C@@H](CCN)C(=O)N[C@H](C(=O)N[C@@H](CCN)C(=O)N[C@H]1CCNC(=O)[C@H](C(C)O)NC(=O)[C@H](CCN)NC(=O)[C@H](CCN)NC(=O)[C@H](CC(C)C)NC(=O)[C@@H](CC2CCCCC2)NC(=O)[C@H](CCN)NC1=O)C(C)O (stereo partly drawn) [Example 22] ({Octanoyl(6-Me)}-[Dab][Thr(3ξ)][Dab][Dab][Dab][dCha]L[Dab][Dab][Thr(3ξ)]; lactam 4-C) : 2 µg/mL
CC(C)C[C@@H]1NC(=O)[C@@H](CC2CCCCC2)NC(=O)[C@H](CCN)NC(=O)[C@@H](NC(=O)[C@H](CCN)NC(=O)[C@@H](NC(=O)C(CCN)c2ccccc2Cl)[C@@H](C)O)CCNC(=O)[C@H]([C@@H](C)O)NC(=O)[C@H](CCN)NC(=O)[C@H](CCN)NC1=O (stereo partly drawn) [Example 77] (X28-T[Dab][Dab][Dab][dCha]L[Dab][Dab]T; lactam 3-C) : 8 µg/mL
CC(C)Cc1ccc(C[C@H]2NC(=O)[C@H](CCN)NC(=O)[C@@H](NC(=O)[C@H](CN)NC(=O)[C@@H](NC(=O)C3CNCC(CC(C)C)C3)C(C)O)CCNC(=O)[C@H]([C@@H](C)O)NC(=O)[C@H](CCN)NC(=O)[C@H](CCN)NC(=O)[C@H](CC(C)C)NC2=O)cc1 (single isomer, unassigned; isomer 2) [Example 25] : 1 µg/mL
CC(C)C[C@@H]1NC(=O)[C@@H](CC2CCCCC2)NC(=O)[C@H](CCN)NC(=O)[C@@H](NC(=O)[C@H](CN)NC(=O)[C@@H](NC(=O)C(CCN)Cc2ccsc2)[C@@H](C)O)CCNC(=O)[C@H]([C@@H](C)O)NC(=O)[C@H](CCN)NC(=O)[C@H](CCN)NC1=O (stereo partly drawn) [Example 68] (X24-T[Dap][Dab][Dab][dCha]L[Dab][Dab]T; lactam 3-C) : 2 µg/mL

Now look at this one.
Lookup: Look up and report measured MIC E. coli 058 for this entry: CC(C)C[C@@H]1NC(=O)[C@@H](CC2CCCCC2)NC(=O)[C@H](CCN)NC(=O)[C@@H](NC(=O)[C@H](CN)NC(=O)[C@@H](NC(=O)C(CCN)c2ccccc2)C(C)O)CCNC(=O)[C@H]([C@@H](C)O)NC(=O)[C@H](CCN)NC(=O)[C@H](CCN)NC1=O (single isomer, unassigned; isomer 2) [Example 38]
Found: 2 µg/mL

Entry source: patent US12146004B2
